Reported CRF1R EC50 values for a set of binders
SYSTEM: corticotropin releasing factor 1 receptor
EXPERIMENT NOTES: cell-based or functional assay
Ends that are not written are not given here.

Lab book: CRF1R EC50 of IVLSLDVPIGLLQILLEQARAAAREQATTNARILARV-NH2 [SEQ ID NO 141] noted as > 100 nM

Now examine the next entry.
For ZGPPISIDLPTPLLRKMIEIEKQEKEKQQAANNRLLLDTI (C-terminal amide) [SEQ ID NO 52] the binder record lists CRF1R EC50 as > 1000 nM
